target.desc: Carboxy-terminal domain RNA polymerase II polypeptide A small phosphatase 1 (Homo sapiens, UniProt Q9GZU7)
Sequence (Q9GZU7 whole entry): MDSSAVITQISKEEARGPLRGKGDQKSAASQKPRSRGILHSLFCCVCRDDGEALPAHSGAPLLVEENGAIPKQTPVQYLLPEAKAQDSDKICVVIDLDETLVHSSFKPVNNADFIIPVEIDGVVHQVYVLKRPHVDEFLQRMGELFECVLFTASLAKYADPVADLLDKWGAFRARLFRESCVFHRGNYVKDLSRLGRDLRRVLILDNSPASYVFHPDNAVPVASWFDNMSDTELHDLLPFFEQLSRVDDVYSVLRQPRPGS
test.method.notes: CTDSP1 inhibitors, concentration-response, biochemical, absorbance readout, ultra-high-throughput screen actives (AID 540297)
Type: functional
The source made the active and inactive calls. Rule as the data show it: actives have a measured IC50 and inactives only a lower limit.
Answer each item with its documented IC50.

Query: Look up IC50: CCOc1cc(/C=C2/NC(=O)NC2=O)cc(Br)c1OCc1ccc(C(=O)O)cc1
Reply: 5.9 µM (active)

Query: And for O=C(Nc1ccnc(O)n1)c1sc2ccccc2c1Cl ?
Reply: 16.2 µM (active)

Query: And for C=CCn1c(COc2ccccc2F)nnc1SCC(=O)NC(=O)NCc1ccco1 ?
Reply: 12.2 µM (active)

Query: And for Cn1cccc1/C=C1\C(=O)NC(=O)N(Cc2ccco2)C1=O ?
Reply: 4.88 µM (active)

Query: And for Cc1c(CC(=O)O)c(=O)oc2c(C)c(OCc3ccc(F)cc3Cl)ccc12 ?
Reply: 2.17 µM (active)
